pEC50 overview
Molecular target: GluN2B glutamate receptors (Homo sapiens, UniProt Q05586+Q13224)
Sequence (Q13224 27-1484, other chains not shown): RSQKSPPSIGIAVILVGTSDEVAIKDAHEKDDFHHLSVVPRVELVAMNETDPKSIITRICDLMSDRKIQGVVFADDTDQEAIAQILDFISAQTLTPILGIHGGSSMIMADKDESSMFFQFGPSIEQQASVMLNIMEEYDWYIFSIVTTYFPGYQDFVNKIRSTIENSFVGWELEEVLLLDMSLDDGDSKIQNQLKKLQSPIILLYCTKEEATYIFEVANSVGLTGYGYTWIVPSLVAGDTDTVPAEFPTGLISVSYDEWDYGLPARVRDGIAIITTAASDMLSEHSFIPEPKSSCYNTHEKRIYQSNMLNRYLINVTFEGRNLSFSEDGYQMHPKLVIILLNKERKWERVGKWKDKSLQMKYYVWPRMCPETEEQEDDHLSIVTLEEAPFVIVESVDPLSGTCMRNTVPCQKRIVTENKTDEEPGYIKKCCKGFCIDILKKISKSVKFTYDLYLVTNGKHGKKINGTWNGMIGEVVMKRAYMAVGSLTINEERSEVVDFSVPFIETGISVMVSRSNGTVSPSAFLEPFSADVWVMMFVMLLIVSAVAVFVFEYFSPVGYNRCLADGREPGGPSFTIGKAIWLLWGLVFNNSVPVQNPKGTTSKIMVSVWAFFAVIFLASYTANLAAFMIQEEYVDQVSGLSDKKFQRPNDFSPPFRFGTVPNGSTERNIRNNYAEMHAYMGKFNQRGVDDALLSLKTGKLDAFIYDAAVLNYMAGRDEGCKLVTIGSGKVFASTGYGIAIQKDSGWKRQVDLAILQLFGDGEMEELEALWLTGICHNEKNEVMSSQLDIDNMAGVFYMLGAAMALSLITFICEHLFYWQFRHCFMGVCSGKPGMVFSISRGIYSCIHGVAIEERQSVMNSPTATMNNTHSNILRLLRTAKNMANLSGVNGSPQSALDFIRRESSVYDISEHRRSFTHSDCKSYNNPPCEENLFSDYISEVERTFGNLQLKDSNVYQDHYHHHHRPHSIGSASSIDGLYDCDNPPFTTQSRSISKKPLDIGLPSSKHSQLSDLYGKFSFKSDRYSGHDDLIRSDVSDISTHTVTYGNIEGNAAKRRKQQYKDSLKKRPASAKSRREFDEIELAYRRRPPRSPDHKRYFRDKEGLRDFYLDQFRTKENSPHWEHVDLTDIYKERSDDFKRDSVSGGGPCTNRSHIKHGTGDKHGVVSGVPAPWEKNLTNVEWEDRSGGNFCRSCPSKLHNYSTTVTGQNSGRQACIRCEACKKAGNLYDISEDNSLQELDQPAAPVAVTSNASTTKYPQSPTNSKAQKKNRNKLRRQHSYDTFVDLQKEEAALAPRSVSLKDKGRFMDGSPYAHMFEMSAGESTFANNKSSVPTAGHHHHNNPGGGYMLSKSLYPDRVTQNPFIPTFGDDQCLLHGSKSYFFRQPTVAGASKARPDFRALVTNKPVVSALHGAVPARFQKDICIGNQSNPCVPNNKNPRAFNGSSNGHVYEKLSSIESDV
Assay: Whole-cell patch clamp of mammalian cells (Ionworks Barracuda), positive allosteric modulation (PAM) of NMDA receptor, 2B
Conditions: co-application with EC20 L-glutamate and 30 µM glycine; 8-point concentration-response
# pEC50 = -log10(concentration in molar units)

Here are 2 compounds together with their reported answers.
C[C@H](CCC(O)(c1ccccc1)C(F)(F)F)[C@H]1CC[C@H]2[C@@H]3CC=C4C[C@@](C)(O)CC[C@]4(C)[C@H]3CC[C@]12C (stereo partly drawn) | 5.81
C[C@H](CCC(O)Cc1ccccc1)[C@H]1CC[C@H]2[C@@H]3CC=C4C[C@@](C)(O)CC[C@]4(C)[C@H]3CC[C@]12C (stereo partly drawn) | 6.29

# ---- query compound ----
Ask | Reported pEC50, compound "C[C@H](CCC1(O)CCOCC1)[C@H]1CC[C@H]2[C@@H]3CC[C@H]4C[C@](O)(C(F)(F)F)CC[C@]4(C)[C@H]3CC[C@]12C" : ____
Reply | 6.98
